Assay: gradient 5% acetonitrile 3 min, to 50% in 2 min, to 85% in 15 min, held 3 min, 100 µL/min
Conditions: column: Zorbax Extend-C18 2.1 x 50 mm; eluents: water / acetonitrile, 0.1% formic acid
Property Measured: RP-LC retention time (s)

Write down RP-LC retention time measured for item O=C(CN1C(=O)COc2ccc(C(=O)N3CCN(c4ccc(F)cc4)CC3)cc21)N1CCCC1
736

Determine from records and report RP-LC retention time for CN1CCN(C(=O)CCCN2C(=O)CCn3nc(-c4cn(C)c5ccccc45)cc32)CC1
571

Kindly indicate its recorded RP-LC retention time. Item: Fc1cc(CN2CCC(Cc3nnc(C4CCOCC4)o3)C2)ccc1Cl (stereo not given)
603

Look up and report measured RP-LC retention time for this entry: Cc1cc(C)n2nc(SCC(=O)NCc3cccs3)nc2n1
647

Quickly give me recorded RP-LC retention time for Cc1ccc(-c2nc(CN3CCCC3=O)no2)cc1
782

====

Assay: gradient 5% acetonitrile 3 min, to 50% in 2 min, to 85% in 15 min, held 3 min, 100 µL/min
Conditions: column: Zorbax Extend-C18 2.1 x 50 mm; eluents: water / acetonitrile, 0.1% formic acid
Property Measured: RP-LC retention time (s)

Please supply the value of reported RP-LC retention time for the item COc1ccc(Cc2nc(-c3ccc4nnc(C)n4c3)no2)cc1Cl
822

Return value of RP-LC retention time for input CC(C)CN1CCn2cc(S(=O)(=O)NCc3ccc(F)c(Cl)c3)cc2C1=O , no commentary.
855

Report RP-LC retention time, nothing else, for this compound: Cc1ccc(C)c(NC(=O)C2(C)Oc3cccnc3N(C)C2=O)c1 (centres undefined)
836

Report RP-LC retention time, nothing else, for this compound: Cc1ccc(-c2ncc(C(=O)Nc3ccccc3Br)c(-c3ccncc3)n2)cc1
994

Consider the compound COc1ccc(C2(C(=O)N3CCC4(CC3)N(CC3CC3)C(=O)CS4=O)CC2)cc1 (centres undefined) . State its measured RP-LC retention time.
677

# return recorded RP-LC retention time for entry COc1cc(NC(=O)CSc2cc(N3CCN(c4ccccc4OC)CC3)ncn2)cc(OC)c1
957

Give the value of RP-LC retention time reported for the following: Cc1ccc(S(=O)(=O)N2C(=O)CCC2C(=O)NC2CCC(C)CC2)cc1 (centres undefined)
958

Return value of RP-LC retention time for input Cc1cc2nn(CC(=O)Nc3ccc(F)cc3)c(=O)n2c(-c2ccccc2)n1 , no commentary.
785

Give the reported value of RP-LC retention time for this record: CCCNc1cc(N2CCC(CCC(=O)Nc3ccccc3)CC2)ncn1
704

====

Experiment: gradient 5% acetonitrile 3 min, to 50% in 2 min, to 85% in 15 min, held 3 min, 100 µL/min
Details: column: Zorbax Extend-C18 2.1 x 50 mm; eluents: water / acetonitrile, 0.1% formic acid
Property Measured: RP-LC retention time (s)

Examples with answers:
Item CC(=O)N[C@@H]1CCN(Cc2ccccc2C(F)(F)F)C[C@@H]1CO : provide RP-LC retention time
574

Give recorded RP-LC retention time. COc1ccc(NC(=O)c2noc3c2CCCCC3)cc1OC
907

For the compound COc1ccccc1NC(=O)C1CCN(c2cc(N3CCCCC3)ncn2)CC1 , report RP-LC retention time.
700

Hello, please tell me recorded RP-LC retention time for this one: Cc1nnc2ccc(-c3noc(-c4cccc(F)c4)n3)cn12
881

State its RP-LC retention time: CCOC(=O)Cc1csc(NC(=O)Cc2csc(Nc3cc(C)ccn3)n2)n1
624

[P] COC(=O)c1ccc2c(=O)n(-c3cc(F)cc(F)c3)c(N3CCOCC3)nc2c1
[Q] CNc1nc(N2CCOCC2)nc2ccccc12
RP-LC retention time comparison. Which is larger, P or Q ? Refer to your chosen entry by its label in the reply.
P
(P: 945 s, Q: 582 s)

====

Experiment: gradient 5% acetonitrile 3 min, to 50% in 2 min, to 85% in 15 min, held 3 min, 100 µL/min
Conditions: column: Zorbax Extend-C18 2.1 x 50 mm; eluents: water / acetonitrile, 0.1% formic acid
Property Measured: RP-LC retention time (s)

Output measured RP-LC retention time for this item: CCc1cc(=O)n(CC(=O)NCc2ccc(Cl)cc2)c(N)n1
627

Identify the reported RP-LC retention time for the following entry. O=C(NCc1cccc(F)c1)C1CCCN(c2cnc3nccnc3c2)C1 (stereo not given)
702

Answer with the recorded RP-LC retention time for the compound listed here: COCCNC(=O)C1CCN(C(=O)c2cccn2-c2cccnc2)CC1
578

Note RP-LC retention time for the compound shown: CC(C(=O)N1CCCc2ccccc21)n1cnc2nc3c(cc2c1=O)CCCC3 (stereo not given)
818

Quick one: give measured RP-LC retention time for O=C(c1ccoc1)N1CCC(N2CC(F)(F)C[C@H]2CO)CC1
539

[1] Cc1cc(-c2nnc(NC(=O)Cn3cnc4c3c(=O)n(C)c(=O)n4C)o2)n(C)n1
[2] Cc1sc(NC(=O)c2ccccc2Cl)nc1-c1ccc2c(c1)N(C)C(=O)CO2
Looking at 1 and 2 , which one comes out lower in RP-LC retention time terms? Please reply using the label of the selected record.
1

====

Test: gradient 5% acetonitrile 3 min, to 50% in 2 min, to 85% in 15 min, held 3 min, 100 µL/min
Details: column: Zorbax Extend-C18 2.1 x 50 mm; eluents: water / acetonitrile, 0.1% formic acid
Property Measured: RP-LC retention time (s)

Known RP-LC retention time results, listed for orientation:
Identify RP-LC retention time associated with the molecule Cc1nc2cccnc2n1C1CCN(C(=O)Nc2ccc3c(c2)OCO3)CC1
613

Retrieve RP-LC retention time measured for COc1cccc(Cn2c(=O)c3cnc(-c4ccncc4)nc3n(C)c2=O)c1 and print it.
805

Give the reported value of RP-LC retention time for this record: O=C(Cn1c(=O)n(-c2ccc(F)cc2)c2ncccc21)NCCCN1CCOCC1
804

Kindly indicate its recorded RP-LC retention time. Item: CCn1nc(CNC(=O)c2ccccn2)c2ccccc21
796

Look up RP-LC retention time of CCc1sc(NC(=O)c2cc3c([nH]c2=O)CCCC3=O)nc1-c1ccc(Cc2ccccc2)cc1 and report it.
1140

[I] O=C(C1CCCC1)N1CCCC1c1nc(C2CCOCC2)no1 (stereo not given)
[II] CCOc1ccc(OCC)c(NC(=O)CSc2nccnc2Oc2ccccc2)c1
I need your help: which of the pair I , II has higher RP-LC retention time? Lab log: write the label of the selected item as the result.
II

====

Assay: gradient 5% acetonitrile 3 min, to 50% in 2 min, to 85% in 15 min, held 3 min, 100 µL/min
Conditions: column: Zorbax Extend-C18 2.1 x 50 mm; eluents: water / acetonitrile, 0.1% formic acid
Property Measured: RP-LC retention time (s)

Examples from the recorded data:
Please indicate RP-LC retention time recorded for CCCN(C)c1nccnc1OC1CCN(Cc2cccnc2)C1 (centres undefined)
594

Tell us which RP-LC retention time value is on record for COCCCNC(=O)C1CN(C(=O)c2ccccc2)CC12CCCCC2 (centres undefined)
571

Report RP-LC retention time for Cc1nnc2c(=O)n(CC(=O)NCc3ccc(Cl)cc3)c3cccnc3n12
703

Given the compound CCc1cc(=O)n(CC(=O)Nc2ccc3c(c2)OCCO3)c(-c2cccc(F)c2)n1 , write its reported RP-LC retention time.
1090

Find the measured RP-LC retention time of CSc1ccc(-c2noc(CN3C(=O)COc4cc(Cl)ccc43)n2)cc1 and report it.
1170

[A] O=C(Cn1nc2c3cc(F)ccc3ncn2c1=O)Nc1ccc2c(c1)OCO2
[B] COCCCn1c(=O)c2ccccc2n(Cc2nc(-c3ccccc3)no2)c1=O
Select one: A or B . Criterion: greater recorded RP-LC retention time. Give the chosen item's label as your response.
B
(B: 994 s, A: 668 s)

[P] O=C(COc1cccc2c1CCN(Cc1ccc(F)cc1)C2=O)Nc1ccc2c(c1)OCO2
[Q] Cn1nccc1C(=O)N1CCC(Cc2nc(C3CC3)n[nH]2)C1 (centres undefined)
Please compare: P and Q . Report which one has the smaller RP-LC retention time value. Kindly give the label for the entry you pick.
Q
(Q: 578 s, P: 846 s)

====

Experiment: gradient 5% acetonitrile 3 min, to 50% in 2 min, to 85% in 15 min, held 3 min, 100 µL/min
Details: column: Zorbax Extend-C18 2.1 x 50 mm; eluents: water / acetonitrile, 0.1% formic acid
Property Measured: RP-LC retention time (s)

Use these answered entries as a reference point.
Provide one value: measured RP-LC retention time of CCOc1ccc(NC(=O)Nc2nccn(-c3ccc(C(C)C)cc3)c2=O)cc1
1160

In one line, give reported RP-LC retention time of the entry COc1cccc(COc2cn(C)c(C(=O)Nc3ccc4c(c3)OCCO4)cc2=O)c1 .
675

Answer with the recorded RP-LC retention time of CCN(CC)CCCNC(=O)C1c2ccccc2C(=O)N1Cc1ccc(C)cc1 (centres undefined) only.
633

Give the reported RP-LC retention time for this compound. CCc1ccc(CNC(=O)Cn2cnc3nc4c(cc3c2=O)CCCC4)cc1
765

Indicate its recorded RP-LC retention time; the compound in question is COc1c(C(=O)NCCN2CCCCC2C)sc2ccc(Cl)cc12 (centres undefined)
716

Return value of RP-LC retention time for input Cc1ccc2nc(-c3ccc(NC(=O)Cn4cnc(C)cc4=O)cc3)sc2c1 , no commentary.
762

Give RP-LC retention time for the following compound: Cc1cc(=O)n2c(-c3cccc(NC(=O)c4sc(C)nc4C)c3)csc2n1
645

State its RP-LC retention time for this compound: CCc1ccccc1NC(=O)N1CCC(N2CCN(Cc3ccccc3)C(=O)C2=O)CC1
730

[P] Cc1ccccc1CC(=O)N1CCC2(CC1)NC(=O)c1cc(F)ccc1N2C
[Q] Cc1c(C(=O)NC2CCCC2)cnn1-c1cc(-c2nc(C(C)(C)C)no2)ccn1
Higher RP-LC retention time: P or Q ? Your choice should be expressed through its label.
Q
(Q: 1130 s, P: 787 s)

[A] CC(=O)c1cccc(NC(=O)c2csc3c2CCC(C)C3)c1 (centres undefined)
[B] O=C(NCc1ccc(N2CCCCC2)cc1)c1cn2c(n1)CSCC2
For this pair, A and B , which shows a numerically higher RP-LC retention time? Give the label of your selection.
A
